Tested System: T1, human TREM2 Fc fusion (entire TREM2 ECD; only one Fc arm fused to TREM2) (human, UniProt Q9NZC2 19-174)
T1 construct: also called huTREM2-Fc; recombinant hTREM2
T1 sequence: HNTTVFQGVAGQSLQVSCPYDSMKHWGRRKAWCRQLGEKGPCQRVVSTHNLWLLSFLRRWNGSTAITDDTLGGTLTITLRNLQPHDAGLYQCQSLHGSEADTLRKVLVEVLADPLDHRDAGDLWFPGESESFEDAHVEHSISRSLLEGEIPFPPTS
Test Protocol: BLI, Fab, monovalent
Experimental: Briefly, IgG's were loaded on-line onto AHQ sensors. Sensors were equilibrated off-line in assay buffer for 30 minutes and then monitored on-line for 60 seconds for baseline establishment. For avid binding measurement, sensors with loaded IgGs were exposed to 100 nM antigen (human TREM2 Fc fusion using the entire TREM2 ECD; only one Fc arm was fused to TREM2) for 3 minutes, afterwards they were transferred to assay buffer for 3 minutes for off-rate measurement. […]
Entries annotated with measured Kd
Write down the numeric answer in nM and omit the unit.

Binder	Experimental Endpoint	Value Measured
AL2p-h26 (antibody, human IgG1, V domains shown, humanized, human IgG1; Fab and IgG formats under one id) VH: QVQLVQSGAEVKKPGASVKVSCKASGYAFSSSWMNWVRQAPGQRLEWIGRIYPGDGDTNYAQKFQGRVTITADTSASTAYMELSSLRSEDTAVYYCARLLRNQPGESYAMDYWGQGTLVTVSS VL: DVVMTQTPLSLSVTPGQPASISCRSSQSLVHSNGYTYLHWYLQKPGQSPQLLIYKVSNRFSGVPDRFSGSGSGTDFTLKISRVEAEDLGVYFCSQSTRVPYTFGQGTKLEIK	Kd	95.3
AL2p-h90 (antibody, human IgG1, V domains shown, humanized, human IgG1; Fab and IgG formats under one id) VH: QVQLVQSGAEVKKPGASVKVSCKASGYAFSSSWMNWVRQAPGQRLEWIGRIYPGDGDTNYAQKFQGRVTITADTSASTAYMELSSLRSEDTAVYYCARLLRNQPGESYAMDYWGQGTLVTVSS VL: DVQMTQSPSSLSASVGDRVTITCRSSQSLVHSNGYTYLHWYQQKPGKSPKLLIYKVSNRFSGVPSRFSGSGSGTDFTLTISSLQPEDFATYYCSQSTRVPYTFGGGTKVEIK	Kd	61.2
AL2p-h34 (antibody, human IgG1, V domains shown, humanized, human IgG1; Fab and IgG formats under one id) VH: QVQLVQSGAEVKKPGSSVKVSCKASGYAFSSSWMNWVRQAPGQGLEWIGRIYPGDGDTNYAQKFQGRATITADTSTSTAYMELSSLRSEDTAVYFCARLLRNQPGESYAMDYWGQGTLVTVSS VL: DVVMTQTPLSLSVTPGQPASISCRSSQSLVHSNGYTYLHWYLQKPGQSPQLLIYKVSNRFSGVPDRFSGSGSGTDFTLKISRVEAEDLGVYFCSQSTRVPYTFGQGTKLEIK	Kd	142

I have this binder here, AL2p huIgG1 (human mouse chimeric parental antibody) (antibody, V domains shown, Mouse variable region with human IgG1 Fc region; Fab and IgG formats under one id; also called chimeric parental AL2p antibody as huIgG1) VH: QVQLQQSGPELVKPGASLKISCKASGYAFSSSWMNWVKQRPGKGLEWIGRIYPGDGDTNYNGEFRVRATLTADTSSTTAYMQLSSLTSEDSAVYFCARLLRNQPGESYAMDYWGQGASVTVSS VL: DVVMTQTPLSLPVSLGDQASISCRSSQSLVHSNGYTYLHWYLQKPGQSPKLLIYKVSNRFSGVPDRFSGSGSGTDFTLKISRVEADDLGVYFCSQSTRVPYTFGGGTKLEIK , and I need its recorded Kd.
102

Repeat with AL2p-h27 (antibody, human IgG1, V domains shown, humanized, human IgG1; Fab and IgG formats under one id) VH: QVQLVQSGAEVKKPGASVKVSCKASGYAFSSSWMNWVRQAPGQGLEWIGRIYPGDGDTNYNGEFRVRATLTADTSTSTAYMELSSLRSEDTAVYFCARLLRNQPGESYAMDYWGQGTLVTVSS VL: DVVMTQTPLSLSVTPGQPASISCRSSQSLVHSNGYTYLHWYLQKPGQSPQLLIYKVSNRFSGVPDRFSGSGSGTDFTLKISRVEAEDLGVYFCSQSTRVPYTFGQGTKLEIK
120
